test: Metabolic stability at human plasma assessed as compound degradation at 37 degC after 72 hrs by HPLC analysis; type: ADME, cell-free; conditions: read-out: Drug degradation
readout type: metabolised at 72 h (%)

> print(dat)
                               entry.smiles  unit.name  result.number
1  O=C1Nc2ccc(Br)cc2[C@]12ON=C(c1cccc(Cl)c1)N2c1cccc(Cl)c1          %             38

----------
experiment: Antiproliferative activity against human p53 +/+ HCT116 cells measured after 72 hrs by MTS assay; assay type: functional; conditions: HCT-116, 72 h
Hi! Just check whether GI50 is below 30 µM. Below gives MET, equal or above gives NOT MET.

> print(dat)
                                    compound  assigned.category
 1  O=C1Nc2ccc(Cl)cc2[C@]12ON=C(c1cccc(Cl)c1)N2c1cccc(Cl)c1                MET
 2  O=C1Nc2cc(Cl)ccc2[C@]12ON=C(c1cccc(Cl)c1)N2c1cccc(Cl)c1                MET
 3  O=C1Nc2ccccc2[C@]12ON=C(c1ccc(Cl)cc1)N2c1cccc(Cl)c1            NOT MET
 4  O=C1Nc2ccc(Cl)cc2[C@]12ON=C(c1cccc(Cl)c1)N2c1ccc(Cl)cc1                MET
 5  O=C1Nc2cc(Cl)ccc2[C@]12ON=C(c1ccc(Cl)cc1)N2c1cccc(Cl)c1                MET
 6  O=C1Nc2ccc(Cl)cc2[C@]12ON=C(c1ccccc1)N2c1cccc(Cl)c1                MET
 7  O=C1Nc2cc(Cl)ccc2[C@]12ON=C(c1ccccc1)N2c1ccccc1                MET
 8  O=C1Nc2ccc(Br)cc2[C@]12ON=C(c1ccccc1)N2c1ccc(Cl)cc1                MET
 9  O=C1Nc2ccc(Br)cc2[C@]12ON=C(c1cccc(Cl)c1)N2c1cccc(Cl)c1                MET
10  O=C1Nc2ccccc2[C@]12ON=C(c1ccccc1)N2c1ccc(Cl)cc1            NOT MET
11  O=C1Nc2cc(Cl)ccc2[C@]12ON=C(c1ccccc1)N2c1ccc(Cl)cc1            NOT MET
12  O=C1Nc2cc(Cl)ccc2[C@]12ON=C(c1ccc(Cl)cc1)N2c1ccccc1                MET
13  O=C1Nc2ccc(Cl)cc2[C@]12ON=C(c1ccc(Cl)cc1)N2c1cccc(Cl)c1                MET
14  O=C1Nc2ccc(Br)cc2[C@]12ON=C(c1ccc(Cl)cc1)N2c1cccc(Cl)c1                MET
15  COc1ccc(C2=N[C@@H](c3ccc(Cl)cc3)[C@@H](c3ccc(Cl)cc3)N2C(=O)N2CCNC(=O)C2)c(OC(C)C)c1 [NUTLIN-3]                MET
16  O=C1Nc2cc(Cl)ccc2[C@]12ON=C(c1cccc(Cl)c1)N2c1ccc(Cl)cc1                MET
17  O=C1Nc2cc(Cl)ccc2[C@]12ON=C(c1ccc(Cl)cc1)N2c1ccc(Cl)cc1                MET
18  Cc1ccc(C2=NO[C@@]3(C(=O)Nc4cc(Cl)ccc43)N2c2ccccc2)cc1            NOT MET
19  O=C1Nc2ccccc2[C@]12ON=C(c1cccc(Cl)c1)N2c1cccc(Cl)c1            NOT MET
